Assay: amyloid nucleation score (Sup35N fusion, yeast selection) (log enrichment); library NNK1; higher = more nucleation; inactive = no reads after selection;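 also: zero at mode of non-aggregating sequences after 7 days selection at 30°C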

| substance | amyloid nucleation score |
| --- | --- |
| RLASRCLLALGMEWLIPMER | 2.6 |
| VPSFITYLVVDLWDALQGYH | 0.409 |
| LAMRAMIRNVLFTKSQLHDR | -0.154 |
| APEGLPMDAPGLGWVNRVII | -0.295 |

----------
Experiment: amyloid nucleation score (Sup35N fusion, yeast selection) (log enrichment); library NNK2; higher = more nucleation; inactive = no reads after selection
Kindly return YES if reported amyloid nucleation score is no lower than 0.7; return NO if it is lower.

| substance | class.assignment |
| --- | --- |
| LGHASSFCAYCRFDSM | YES |
| HSLSWKCV | NO |
| FFLSRFLV | NO |
| WLYSIVCCDRKQSRSGMCDL | YES |
| KVKSLYLSMVQGWMFYV | NO |
| VQPVLCIVSCNRLNRQRAEM | NO |
| LTCFSPLVRLEGA | NO |
| LMLIVQDPCLSEINFKLDSG | YES |
| SSKYYA | NO |
| NLNYLVLTYDVSVWNVYVVL | YES |
| EQRGLASCLTIHHSRWCYTK | NO |
| GMLMIVGARSRDVPYYGRCD | NO |
| SRNTVLYISLSFLTPYISCC | YES |
| SVLLWWTHMYGLRMMKGVWG | NO |
| IRHNVKRLGATNVW | NO |
| MGMLFMFVITKKSLVQDSLY | YES |
| LWSEGMTLASADCR | YES |

----------
Test: amyloid nucleation score (Sup35N fusion, yeast selection) (log enrichment); library NNK2; higher = more nucleation; inactive = no reads after selection
The sequences listed here are annotated with their amyloid nucleation score.

| sequence.chain | amyloid nucleation score |
| --- | --- |
| ACQYLGLETPKWCGINRWGL | 0.324 |
| LDVAGKVKASHKLRAWVWFS | 0.436 |
| WQGEPHPIHFMLSFVLMGW | 0.957 |
| MDIFCYTGRPTSAKRAS | -1.05 |

----------
Test: amyloid nucleation score (Sup35N fusion, yeast selection) (log enrichment); library NNK3; higher = more nucleation; inactive = no reads after selection
measurement.label: amyloid nucleation score

| substance | measurement.label | assay.result |
| --- | --- | --- |
| FLGSYSLTDRIRWVTFPLFQ | amyloid nucleation score | inactive |
| FCLNYDGGWWCRMSCVYNQG | amyloid nucleation score | inactive |
| TVRVYIHIYHIGFLGPMRSE | amyloid nucleation score | 0.889 |
| THLFRYKTASTDGCNESKAV | amyloid nucleation score | inactive |
| SIDVLKTNINDIRFVIKIRR | amyloid nucleation score | inactive |
| SESCFDMMPCLVGLKSERGQ | amyloid nucleation score | inactive |
| LKRVDEVVIDPLYREGYTER | amyloid nucleation score | inactive |
| CFSNLGCTGWRT | amyloid nucleation score | -0.684 |
| YFEVDNLRRIQRRLICLGPE | amyloid nucleation score | 0.891 |
| CARRNLAVNYKYWFVGEHYI | amyloid nucleation score | inactive |
| IPRYVWNVPRWYVYQFVCGA | amyloid nucleation score | 0.27 |
| FSTWNKRRMLYRHSGLFRQS | amyloid nucleation score | inactive |
| YLTCDKTNVNGFMI | amyloid nucleation score | inactive |
| SVYGKFILAAVAGLRFGGLK | amyloid nucleation score | inactive |
| CNYNTTM | amyloid nucleation score | inactive |
| WFFDTDIFHCEFEKMYYPLV | amyloid nucleation score | inactive |
| TRPESETHGMMR | amyloid nucleation score | inactive |
| KGYGCFTGMYSENARMMVIS | amyloid nucleation score | 0.136 |
| GTEDWPNHGKKTLAINYLCP | amyloid nucleation score | inactive |
| TFIHRHINNTSQLPGSFMKL | amyloid nucleation score | inactive |
| MLAHGFCQVSEWSRALFLRV | amyloid nucleation score | -0.244 |
| VQTWWLNMCLLPRKSTYTHL | amyloid nucleation score | inactive |
| SHSLSVGGFYSPDFRNYTCT | amyloid nucleation score | 1.98 |
| RRVTRSSKAYRVGVSWDGIG | amyloid nucleation score | 0.047 |
| VYIMYLSGCCRCHVPMNEGT | amyloid nucleation score | 2.05 |
| VAAFVNRARNATFVLALYCY | amyloid nucleation score | inactive |
| GGVTFYMYCIRLVNDQQGHR | amyloid nucleation score | 1.21 |
| EGSHVPIILGYREFCVFILT | amyloid nucleation score | inactive |
| MSMYVTSF | amyloid nucleation score | inactive |
| SRRSHWFWEPSDTCASFTRP | amyloid nucleation score | inactive |
| SFFRMSFC | amyloid nucleation score | 2.91 |
| GLMESSCRMGLLNPIQTFTQ | amyloid nucleation score | 0.036 |
| SQVLWGTSRGLYYTDRNFTN | amyloid nucleation score | inactive |
| RFWKTTPNGQIRVSSVMRCM | amyloid nucleation score | inactive |
| YSWGRWICHNVVE | amyloid nucleation score | -0.21 |
| TRSCNLNTFKVDASGPPWHG | amyloid nucleation score | inactive |
| KYNPTMSNYSGLLWKIGVGT | amyloid nucleation score | inactive |
| GLIVCVVASSYLMSGFGVKG | amyloid nucleation score | 0.03 |
| YLSINHRTTSFYWYDFAGFP | amyloid nucleation score | 0.537 |
| SYFSYPCCCCVVARFLNYVC | amyloid nucleation score | inactive |
| VSLILFGRIFFHL | amyloid nucleation score | inactive |
| LKYIDTSFMLGFSIVSLRFQ | amyloid nucleation score | inactive |
| VLVNHGFYW | amyloid nucleation score | inactive |
| TIGEKHCCWSLCIEETLVCD | amyloid nucleation score | inactive |
| TDVMVYHPFL | amyloid nucleation score | inactive |
| VSVLCMYFVVGPKMVRVSYG | amyloid nucleation score | inactive |
| IVWEGSSPLVLIKHGICKQR | amyloid nucleation score | inactive |
| IEVQFENFSCSR | amyloid nucleation score | inactive |
| FLYYATGHRIFLV | amyloid nucleation score | inactive |
| MILYPSYLPYLRMVDTTY | amyloid nucleation score | inactive |

----------
Assay: amyloid nucleation score (Sup35N fusion, yeast selection) (log enrichment); library NNK1; higher = more nucleation; inactive = no reads after selection
Kindly return y if reported amyloid nucleation score is no lower than -0.003; return n if it is lower.

| substance | class.assignment |
| --- | --- |
| DCRQTAKHFPETSDNLYRLT | n |
| RYYYAQEWPVALFLSRPKVP | y |
| FIDIACAHFGMKSCVVL | y |
| VEVKSCIWDFGCNQRGYGDG | y |
| SYTYCLVVG | y |
| RYATSMYPL | y |
| YWFFSIMSSYSVNTQM | y |
| IFPPFMDFRNCPVMLNC | y |
| IKWTLLDG | y |
| SLVPVYI | y |
| LSGFKMFIGNYITVV | n |
| KGLGGFLSICNSVVVRQVWR | y |
| HMRGLG | y |
| VSFYGGFGKK | n |
| VVSYSHAIVRLVLSCDMGRC | y |
| SEVSISGVVYFDHREVVEV | n |
| FMRDFSGCSNDRFDGDLALC | y |
| SHSTFAVQMRA | y |
| EGRTWRGSRRGLHLDSPRMC | y |
| YSYMTYRALFVVTSCLSRWG | y |
| HVVVRRIY | n |
| NFPKYGFQGVFRTPMWYGFF | n |
| NSSCIIPMLWWGHNHHWC | y |
| MGEYSRLSARSGWLDTPVDG | n |
| YVMAESSASNDQAVGNWRGR | n |
| SYRHSSTSCKFGYVYRFTCL | y |
| AVLNFIQVVVVVEVVGCYQH | y |
| LRGIDRTALGSGSERYLCLL | n |
| SQIADHIRSPRNL | n |
| YVCFRVDTCRLVCVRRWLNY | y |
| GRGVPGCGCIRDRSLMTNWS | n |
| GGCVGLCFRYSFPTCDSC | y |
| TTDSVDDTRKYAYGFIACGV | y |
| DEWSNKHCSQNTALCSLWAT | y |
| VAQLFHWADLYNTSYYVSCV | y |
| VFYGCVDESCDLNRLGSVSY | n |
| GSRLCRMSSSMIGSLRVIWG | n |
| VVRFCYTEEVRVFNQASLRE | y |
| CLSDGTMAFPCPGRQDVRTV | n |
| LHSSMNCRWIHTL | y |
| WTVLGYFRALQASLRASAGM | y |
| MSALTGQKPLVMVGGLCAVG | y |
| VWSAMDKALLDSGDGSPMG | y |
| TVRGCRCLAFPWFNG | y |
